molecular target: UniProtKB P21802; assay: FGFR wild type enzyme assay (HTRF KinEASE-TK), FGFR2; conditions: Enz FGFR2 (nM), FGFR2 wild type enzyme
VALUE TYPE: IC50 (nM)

The following molecules have reported results that may help.
SMILES: CC(=O)N1CCO[C@@H](Cn2ncc(-c3cc(Sc4ccccc4C#N)c4c(C#N)cnn4c3)c2C)C1
TESTED ON: UniProtKB P21802
RESULT VALUE: 4

SMILES: CC(=O)N1CCO[C@H](Cn2ncc(-c3cc(Sc4ccccc4C#N)c4c(C#N)cnn4c3)c2C)C1
TESTED ON: UniProtKB P21802
RESULT VALUE: 3

SMILES: Cc1c(-c2cc(Sc3ncccc3F)c3c(C#N)cnn3c2)cnn1[C@H]1CCNC[C@@H]1F
TESTED ON: UniProtKB P21802
RESULT VALUE: 2

SMILES: Cc1c(-c2cc(Sc3ccc(F)cc3C#N)c3c(C#N)cnn3c2)cnn1C1CCN(C)CC1
TESTED ON: UniProtKB P21802
RESULT VALUE: 1

I: Cc1c(-c2cc(Sc3ncccc3F)c3c(C#N)cnn3c2)cnn1[C@H]1C[C@H](CO)C1
II: CN[C@H]1C[C@@H](n2ncc(-c3cc(Sc4ncccc4F)c4c(C#N)cnn4c3)c2C)C1
III: Cc1c(-c2cc(Sc3ncccc3F)c3c(C#N)cnn3c2)cnn1[C@H]1CC[C@@H](NCC(F)(F)F)CC1
Kindly order the items shown according to IC50, from the highest value down. Arrange the labels as the request states and list them. I, III, II

----------
target: FGFR2 (Homo sapiens, UniProt P21802); assay: FGFR wild type enzyme assay (HTRF KinEASE-TK), FGFR2; details: Enz FGFR2 (nM), FGFR2 wild type enzyme assay
Sequence (P21802 399-821 limits assumed): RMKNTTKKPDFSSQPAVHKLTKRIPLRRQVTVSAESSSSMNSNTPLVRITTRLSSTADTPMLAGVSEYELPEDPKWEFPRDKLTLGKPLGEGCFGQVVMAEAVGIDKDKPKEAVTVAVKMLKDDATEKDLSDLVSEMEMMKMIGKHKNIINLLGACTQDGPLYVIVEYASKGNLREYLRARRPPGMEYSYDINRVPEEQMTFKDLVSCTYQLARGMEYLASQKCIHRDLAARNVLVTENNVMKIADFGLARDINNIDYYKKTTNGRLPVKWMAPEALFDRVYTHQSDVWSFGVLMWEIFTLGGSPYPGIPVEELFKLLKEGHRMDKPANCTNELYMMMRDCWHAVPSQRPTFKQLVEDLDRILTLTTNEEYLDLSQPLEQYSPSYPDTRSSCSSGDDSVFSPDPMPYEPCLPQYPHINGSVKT
VALUE TYPE: IC50 (nM)

The following compounds have reported results that may help.
COMPOUND: N#Cc1ccccc1Sc1cc(-c2cnn([C@H]3CCCC[C@H]3O)c2)cn2ncc(C#N)c12
IC50, nM: 2
--
COMPOUND: Cc1c(-c2cc(Sc3ccccc3C#N)c3c(C#N)cnn3c2)cnn1C1CCN(C#N)CC1
IC50, nM: 1

P: CN1CCC(n2cc(-c3cc(Sc4ncccc4F)c4c(C#N)cnn4c3)cn2)CC1=O (stereo not shown)
Q: CC(=O)N1CCN(c2ccc(-c3cc(Sc4ccccc4C#N)c4c(C#N)cnn4c3)cn2)CC1
Between P and Q , which one shows the smaller IC50 number? In your reply, give the label of the chosen option. Q

----------
biological target: FGFR2 (Homo sapiens); assay: FGFR wild type enzyme assay (HTRF KinEASE-TK), FGFR2; conditions: Enz FGFR2 (nM), FGFR2 wild type enzyme assay
VALUE TYPE: IC50 (nM)

The following compounds have reported results that may help.
COMPOUND: N#Cc1cnn2cc(-c3ccc(N4C[C@H](O)[C@@H](O)C4)nc3)cc(Sc3ncccc3F)c12 [Example 654]
UNIT OF MEASUREMENT: nM
IC50: 3
//
COMPOUND: N#Cc1ccccc1Sc1cc(-c2cn([C@H]3CCCNC3)nn2)cn2ncc(C#N)c12 [Example 461]
UNIT OF MEASUREMENT: nM
IC50: 4
//
COMPOUND: Cc1c(-c2cc(Sc3cc(F)ccc3C#N)c3c(C#N)cnn3c2)cnn1C1CCN(C)CC1 [Example 359]
UNIT OF MEASUREMENT: nM
IC50: 1.5
//
COMPOUND: CC(=O)N[C@H]1CC[C@@H](n2ncc(-c3cc(Sc4nc(C)c(F)cc4F)c4c(C#N)cnn4c3)c2C)CC1 [Example 488]
UNIT OF MEASUREMENT: nM
IC50: 1
//
COMPOUND: Cn1cc(-c2cc(Sc3ccc(F)cc3C#N)c3c(C#N)cnn3c2)cn1 [Example 558]
UNIT OF MEASUREMENT: nM
IC50: 2

A: C[C@H](O)C(=O)N1CC[C@@H](n2cc(-c3cc(Sc4ccccc4C#N)c4c(C#N)cnn4c3)cn2)C1 [Example 606]
B: Cc1noc(N2CCC[C@H](n3ncc(-c4cc(Sc5ccc(F)cc5C#N)c5c(C#N)cnn5c4)c3C)C2)n1 [Example 455]
Between A and B , which one shows the smaller IC50 number? In your reply, give the label of the chosen option. A
(A: 0.5 nM, B: 2 nM)

// provenance: patent US20240270741A1
